- Protocol summary: approximate acute toxicity (LD50) in the mouse, per os
- Reported conditions: in vivo, po, single administration of increasing doses, measured on the seventh day
Outcome measure: LD50 at 168 h

>>> result("CCCc1c(/C=C/c2ccccc2)nc2ccc(C(=O)O)cn2c1=O [K 13808]")
"> 800 mg/kg"

---

- System: passive cutaneous anaphylaxis (PCA)
- Protocol summary: IgE-mediated passive cutaneous anaphylaxis (PCA) test in rats, oral administration
- Type: in vivo
- Reported conditions: rat PCA, p.o., pretreatment time 15'; KB = dose reducing to one half the activity of the sensitizing serum; lower = more active
Reported values of Anti-allergic activity KB for individual entries
Outcome measure: Anti-allergic activity KB (mg/kg)

>>> numeric_result("CCCc1c(/C=C/c2ccccc2C)nc2ccc(C(=O)O)cn2c1=O [FCE 20099]")
2.02
>>> numeric_result("CCCc1c(/C=C/c2ccccc2)nc2ccc(C(=O)O)cn2c1=O [K 13808]")
2.16
>>> numeric_result("CCCc1c(/C=C/c2cccc(OC)c2OC)nc2n(c1=O)C1CC1(C(=O)O)C=C2 (centres unmarked) [FCE 20461]")
1.22
>>> numeric_result("CCc1c(/C=C/c2cccc(OC)c2)nc2n(c1=O)C1CC1(C(=O)O)C=C2 (centres unmarked) [FCE 20509]")
0.61
>>> numeric_result("CCCc1c(/C=C/c2cccc(OC)c2)nc2ccc(C(=O)O)cn2c1=O [FCE 20183]")
1.48
>>> numeric_result("CCc1c(/C=C/c2ccccc2)nc2n(c1=O)C1CC1(C(=O)O)C=C2 (centres unmarked) [K 13830]")
1.15
>>> numeric_result("CCCc1c(/C=C/c2ccccc2)nc2n(c1=O)C1CC1(C(=O)O)C=C2 (centres unmarked) [FCE 20188]")
2.34
